The measured values listed here are drawn from patent US20030134848A1.

Biological target: α4β2 subtype of nicotinic acetylcholine receptors (Rattus norvegicus, UniProt P09483+P12390)
Construct: rat brain membrane obtained from whole homogenized brain; from tissue; host or cells: whole brain of Fischer-344 male rats, membrane fraction
Sequence (P09483 31-630): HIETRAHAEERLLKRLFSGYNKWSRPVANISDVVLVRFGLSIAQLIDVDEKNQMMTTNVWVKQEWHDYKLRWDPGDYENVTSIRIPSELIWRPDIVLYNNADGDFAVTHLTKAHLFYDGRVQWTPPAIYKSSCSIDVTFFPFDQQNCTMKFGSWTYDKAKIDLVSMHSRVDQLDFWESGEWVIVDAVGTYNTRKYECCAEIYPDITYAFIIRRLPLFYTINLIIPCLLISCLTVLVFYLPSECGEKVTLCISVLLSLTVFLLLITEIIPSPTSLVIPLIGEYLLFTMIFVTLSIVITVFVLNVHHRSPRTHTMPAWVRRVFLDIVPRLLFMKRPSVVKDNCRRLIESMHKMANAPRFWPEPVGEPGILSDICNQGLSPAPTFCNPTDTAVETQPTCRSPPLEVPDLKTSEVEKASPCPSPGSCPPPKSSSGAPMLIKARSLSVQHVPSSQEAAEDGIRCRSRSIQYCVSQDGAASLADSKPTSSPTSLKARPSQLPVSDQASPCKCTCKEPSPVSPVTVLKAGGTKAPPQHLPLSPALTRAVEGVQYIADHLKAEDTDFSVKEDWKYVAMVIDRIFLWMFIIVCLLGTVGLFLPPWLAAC
Sequence (P12390 25-500): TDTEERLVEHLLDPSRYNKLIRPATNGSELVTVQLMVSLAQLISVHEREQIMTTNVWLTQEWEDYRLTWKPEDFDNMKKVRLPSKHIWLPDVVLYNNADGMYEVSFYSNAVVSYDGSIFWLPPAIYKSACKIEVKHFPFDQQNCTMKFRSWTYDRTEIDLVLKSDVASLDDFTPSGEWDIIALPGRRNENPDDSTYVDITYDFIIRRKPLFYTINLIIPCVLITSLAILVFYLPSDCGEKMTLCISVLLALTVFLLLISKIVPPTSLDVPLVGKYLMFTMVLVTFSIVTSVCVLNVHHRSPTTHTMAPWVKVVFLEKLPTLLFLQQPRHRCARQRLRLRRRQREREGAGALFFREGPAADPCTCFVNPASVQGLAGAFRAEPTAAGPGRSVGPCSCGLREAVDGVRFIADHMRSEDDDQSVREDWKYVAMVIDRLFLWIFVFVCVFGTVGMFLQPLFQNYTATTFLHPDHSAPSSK
Assay: Binding assay at α4β2 subtype of nicotinic acetylcholine receptors ([3H]-cytisine, rat brain membrane)
Settings: 1 μM of test compound; rat brain membrane; read-out: control % of [3H]-cytisine binding
value kind: remaining activity at 1 µM (%)

| molecule | unit spec | observed |
| --- | --- | --- |
| Nc1nccn1CCc1ccc(Cl)cc1 | % | 97 |
| CC(=O)Cn1ccsc1=N [Compound 2, 3-acetonyl-2-imino-2,3-dihydrothiazole] | % | 107 |
| COc1ccc(Sc2ccccc2CCn2ccnc2N)cc1 | % | 111 |
| Nc1nccn1CCc1ccccn1 [Compound 19, 2-amino-1-[2-(2-pyridyl)ethyl]imidazole] | % | 103 |
| Nc1nccn1CCc1ccccc1Sc1ccc(O)cc1 | % | 102 |

###

Biological target: α1β1γδ subtype of nicotinic acetylcholine receptors (Rattus norvegicus, UniProt P18916+P25108+P25110)
Sequence (P25109 24-501): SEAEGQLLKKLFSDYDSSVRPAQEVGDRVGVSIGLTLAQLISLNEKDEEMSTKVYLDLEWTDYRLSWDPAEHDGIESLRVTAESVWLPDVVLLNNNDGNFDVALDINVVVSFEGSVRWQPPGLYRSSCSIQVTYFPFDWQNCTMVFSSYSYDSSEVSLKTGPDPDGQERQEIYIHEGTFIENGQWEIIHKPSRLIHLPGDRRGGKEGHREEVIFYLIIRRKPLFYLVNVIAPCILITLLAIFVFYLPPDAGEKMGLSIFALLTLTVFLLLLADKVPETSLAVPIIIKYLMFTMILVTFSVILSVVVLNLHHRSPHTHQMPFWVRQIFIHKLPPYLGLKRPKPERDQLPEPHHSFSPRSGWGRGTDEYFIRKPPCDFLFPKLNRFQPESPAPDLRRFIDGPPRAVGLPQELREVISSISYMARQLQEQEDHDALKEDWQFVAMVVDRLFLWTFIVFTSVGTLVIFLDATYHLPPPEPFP
Sequence (P25110 22-517): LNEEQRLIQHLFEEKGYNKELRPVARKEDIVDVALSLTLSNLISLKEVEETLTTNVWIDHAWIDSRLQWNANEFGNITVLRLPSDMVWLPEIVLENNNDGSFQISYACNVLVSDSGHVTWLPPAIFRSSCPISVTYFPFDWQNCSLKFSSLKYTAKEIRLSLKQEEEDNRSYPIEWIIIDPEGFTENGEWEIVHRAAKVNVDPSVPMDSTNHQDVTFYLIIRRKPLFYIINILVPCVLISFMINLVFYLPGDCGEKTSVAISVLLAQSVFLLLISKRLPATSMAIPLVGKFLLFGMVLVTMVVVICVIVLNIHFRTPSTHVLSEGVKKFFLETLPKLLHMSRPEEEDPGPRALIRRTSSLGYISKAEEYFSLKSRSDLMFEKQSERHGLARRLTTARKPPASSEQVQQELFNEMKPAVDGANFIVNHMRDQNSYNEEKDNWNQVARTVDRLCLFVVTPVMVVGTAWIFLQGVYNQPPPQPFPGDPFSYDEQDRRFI
Sequence (P25108 21-457): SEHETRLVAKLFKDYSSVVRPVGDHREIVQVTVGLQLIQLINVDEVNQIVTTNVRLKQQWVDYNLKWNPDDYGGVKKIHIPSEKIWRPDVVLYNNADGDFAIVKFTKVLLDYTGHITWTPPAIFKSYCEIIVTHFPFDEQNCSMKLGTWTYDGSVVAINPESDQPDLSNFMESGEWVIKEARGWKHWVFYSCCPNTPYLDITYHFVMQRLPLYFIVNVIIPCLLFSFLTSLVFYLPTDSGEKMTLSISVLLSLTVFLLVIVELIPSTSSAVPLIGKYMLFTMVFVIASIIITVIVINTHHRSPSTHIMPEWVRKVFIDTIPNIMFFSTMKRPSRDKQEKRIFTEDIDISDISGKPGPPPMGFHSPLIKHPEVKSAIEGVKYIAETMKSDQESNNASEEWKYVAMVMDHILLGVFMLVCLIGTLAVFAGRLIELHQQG
Sequence (P18916 23-519): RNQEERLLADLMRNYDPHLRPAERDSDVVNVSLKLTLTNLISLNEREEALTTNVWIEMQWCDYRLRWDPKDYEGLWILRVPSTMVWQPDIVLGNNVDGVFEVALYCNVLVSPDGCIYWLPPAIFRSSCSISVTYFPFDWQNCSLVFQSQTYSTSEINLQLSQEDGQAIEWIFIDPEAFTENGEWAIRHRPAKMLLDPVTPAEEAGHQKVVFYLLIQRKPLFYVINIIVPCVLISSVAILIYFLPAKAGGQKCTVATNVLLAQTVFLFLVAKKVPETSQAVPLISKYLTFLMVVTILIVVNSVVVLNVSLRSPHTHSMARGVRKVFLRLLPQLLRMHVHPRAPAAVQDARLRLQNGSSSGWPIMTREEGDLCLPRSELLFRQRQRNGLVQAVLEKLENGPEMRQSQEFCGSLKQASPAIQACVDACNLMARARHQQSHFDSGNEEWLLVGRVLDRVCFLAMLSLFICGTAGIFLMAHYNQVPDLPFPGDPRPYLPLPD
Experiment: biochemical
Settings: read-out: Affinities for receptors Ki α1β1γδ; rat muscle extract, [3H]-α-Bgt 1 nM
Rule: Ki below 30 µM gives satisfied. Equal to or above 30 µM gives not satisfied.

| compound | cat |
| --- | --- |
| N=c1ccccn1CCc1ccc(Cl)nc1 [Compound 16] | not satisfied |
| Nc1nccn1CCc1cnc(Cl)c(Cl)c1 [Compound 13] | not satisfied |
| N=C1NCCCN1CCc1ccc(Cl)nc1 [Compound 12] | satisfied |
| N=C1SCCN1CCc1ccc(Cl)nc1 [Compound 5] | not satisfied |
| Nc1nccn1CCc1cccnc1 [Compound 14, 2-amino-1-[2-(3-pyridyl)ethyl]imidazole] | not satisfied |

###

Target: α4β2 subtype of nicotinic acetylcholine receptors (Rattus norvegicus, UniProt P09483+P12390)
Construct: rat brain membrane obtained from whole homogenized brain; from tissue; host or cells: whole brain of Fischer-344 male rats, membrane fraction
Assay: Binding assay at α4β2 subtype of nicotinic acetylcholine receptors ([3H]-cytisine, rat brain membrane)
Settings: read-out: control % of [3H]-cytisine binding
Consider the following compounds and their measured remaining activity at 10 µM readings.

| compound | remaining activity at 10 µM |
| --- | --- |
| N=C1SCCN1CC(O)c1ccc(Cl)nc1 (stereo not shown) | 43% |
| Cc1cn(CCc2ccc(Cl)nc2)c(=N)s1 | 35% |
| N=c1ccc(Cl)nn1CCc1ccc(Cl)nc1 | 12% |
| Nc1nccn1CCc1cncnc1Cl | 17% |

###

Molecular target: α4β2 subtype of nicotinic acetylcholine receptors (Rattus norvegicus, UniProt P09483+P12390)
Construct: rat brain membrane obtained from whole homogenized brain; from tissue; host or cells: whole brain of Fischer-344 male rats, membrane fraction
Assay: Binding assay at α4β2 subtype of nicotinic acetylcholine receptors ([3H]-cytisine, rat brain membrane)
value kind: Ki

| record smiles | observed |
| --- | --- |
| Nc1nccn1CCc1cnc(Cl)s1 | 8.5 nM |
| Nc1nccn1CCc1cncnc1 | 6 nM |
| N=c1sccn1CCc1ccc(Cl)nc1 | 7.4 nM |

###

Biological target: α4β2 subtype of nicotinic acetylcholine receptors (Rattus norvegicus, UniProt P09483+P12390)
Construct: rat brain membrane obtained from whole homogenized brain; from tissue; host or cells: whole brain of Fischer-344 male rats, membrane fraction
Assay: Binding assay at α4β2 subtype of nicotinic acetylcholine receptors ([3H]-cytisine, rat brain membrane)
Conditions: rat brain membrane, [3H]-cytisine 2 nM; read-out: Affinities for receptors Ki α4β2
value kind: Ki (nM)

| compound | observed |
| --- | --- |
| Cc1cncc(CCn2ccnc2N)c1 | 21 |
| Cc1cncc(CCn2ccsc2=N)c1 | 27 |
| Cc1ccc(CCn2ccnc2N)cn1 | 21 |
| Nc1nccn1CCc1cccnc1 [Compound 14, 2-amino-1-[2-(3-pyridyl)ethyl]imidazole] | 3.5 |

###

Target: α1β1γδ subtype of nicotinic acetylcholine receptors (Rattus norvegicus, UniProt P18916+P25108+P25110)
Assay: biochemical
Format: binding
Settings: read-out: control % of [3H]-α-Bgt binding
Procedure: The methods for evaluating the binding capabilities of the compounds at nicotinic acetylcholine receptors are different by subtypes of receptors. […] The affinity of the compounds of the present invention to α1β1γδ subtype of nicotinic acetylcholine receptors was measured by the following method, which was modified method described by Garcha H. S., Thomas P., Spivak C. […] Receptors binding experiments were performed as follow. […] The filters were counted in 3 ml of clearsol I (Nacalai Tesque Inc.). […]
value kind: remaining activity at 1000 µM (%)

| molecule | observed |
| --- | --- |
| Nc1nccn1CCc1ccccn1 [Compound 19, 2-amino-1-[2-(2-pyridyl)ethyl]imidazole] | 86 |
| N=C1SCCN1CC(O)c1ccc(Cl)nc1 (stereo not shown) | 35 |
| Nc1nccn1CCc1ccc(Cl)cc1 | 67 |
| Nc1nccn1CCc1cncnc1Cl | 49 |

###

Target: α1β1γδ subtype of nicotinic acetylcholine receptors (Rattus norvegicus, UniProt P18916+P25108+P25110)
Assay: biochemical
Settings: read-out: Affinities for receptors Ki α1β1γδ; rat muscle extract, [3H]-α-Bgt 1 nM
pKi: −log10 of the molar value.

| record smiles | pKi |
| --- | --- |
| Cc1ccc(CCn2ccnc2N)cn1 | 2.94 |
| N=C1SCCN1CC(=O)c1ccc(Cl)nc1 | 2.74 |
| Nc1nccn1CCc1cncc(Br)c1 | 4.44 |
